- Tested on: HOP-62 NSCLC
- procedure_details: NCI-60 one-dose screen, 48 h (100 = growth as untreated, 0 = no growth, -100 = all killed)
- condition_description: 10 µM unless noted
- Description: Growth inhibition of the HOP-62 human Non-Small Cell Lung tumor cell line is measured as a screen for anti-cancer activity. Cells are grown in 96 well plates and exposed to the test compound for 48 hours. Compounds are tested at a single concentration, which is 10^-5 M for most compounds. The reported endpoint is percent growth (GI% or GIPRCNT), where numbers from 0 - 100% represent growth inhibition, and numbers from -100% - 0 represent cell death. […]
About 83,000 compounds went through this panel and 20% of them were active in at least one assay; those are over-represented in the sample as a whole.
# strict inequality: growth < 90% yields 1.0, everything else yields 0.0

Determine if O=C1/C(=C/c2ccc(C(F)(F)F)cc2)COc2ccc(O)cc21 shows growth strictly lower than 90%. 0.0

Also N=C(N)c1ccc(-c2ccc(-c3ccc(Cl)cc3)o2)o1 ? 1.0

Also O=C(/C=C\c1ccco1)/C=C/c1ccco1 ? 0.0

Also O=C1CCC(C(=O)NN(c2ccccc2)c2ccccc2)N1 (stereo not given) ? 0.0

Also COc1cc(-c2cc(-c3ccc(Nc4ncnc5cc(Cl)ccc45)cc3)nc(N3CCN(C)CC3)n2)cc(OC)c1OC ? 0.0

Also N#C/C(=C\c1ccc(Cl)cc1Cl)C(=O)Nc1ncc(Cc2ccc(Cl)c(Cl)c2)s1 ? 1.0

Also COc1cc(Nc2ncccc2NC(=O)c2cn(Cc3cccc(Oc4ccccc4)c3)nn2)cc(OC)c1 ? 0.0

Also CN1C(=O)N(C)C2C1NC(=S)N2/N=C/C=C/c1ccccc1[N+](=O)[O-] (stereo not given) ? 1.0

Also COc1cccc(C(=O)OCC(O)C(=O)NC23CC4CC(CC(C4)C2)C3)c1 (stereo not given) ? 0.0

Also CN1CCN(CCCOC(=O)c2c3c(n4ccccc24)C(=O)c2ncccc2C3=O)CC1 ? 1.0

These measurements were taken from PubChem BioAssay (NCI).
